Form field: pIC50 (one value per entry).
Molecular target: Human PD-L1/PD-1 (Homo sapiens)
Construct: made in house; host or cells: HEK293T
Sequence (Q9NZQ7 with tags, fused parts or gaps): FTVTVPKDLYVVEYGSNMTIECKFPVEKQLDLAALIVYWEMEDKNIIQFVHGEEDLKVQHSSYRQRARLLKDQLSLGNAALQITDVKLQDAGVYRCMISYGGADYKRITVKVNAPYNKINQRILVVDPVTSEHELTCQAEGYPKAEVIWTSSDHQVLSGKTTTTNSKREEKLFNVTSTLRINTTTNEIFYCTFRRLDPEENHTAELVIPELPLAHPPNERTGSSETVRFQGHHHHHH
Test: HTRF PD-1-Ig/PD-L1-His binding assay (human PD-L1)
Conditions: Table 8, Compound No. 1 variant macrocyclic peptides; read-out: HTRF Human PD-L1/PD-1 Binding Assay IC50
pIC50: −log10 of the molar value. Positions of bridges follow the written chain, without caps; N, C: chain ends. Non-standard residues stand in square brackets, D forms with d. Residues, ends and D or L forms follow the SMILES beside them. ξ: configuration not given here. NMeNle = CCCC[C@H](NC)C(=O)O; αMeP = C[C@@]1(C(=O)O)CCCN1; NMeA = CN[C@@H](C)C(=O)O; ξP = O=C(O)C1CCCN1; Sar = CNCC(=O)O
Test readout: pIC50

>>> quantitative_readout("CCCC[C@H]1C(=O)N(C)[C@@H](CCCC)C(=O)N[C@@H](C)C(=O)N[C@H](C(=O)NCC(N)=O)CSCC(=O)N[C@@H](Cc2ccccc2)C(=O)N(C)[C@@H](C)C(=O)N[C@@H](CC(N)=O)C(=O)N2CCCC2C(=O)N[C@@H](Cc2cnc[nH]2)C(=O)N[C@@H](CC(C)C)C(=O)N(C)CC(=O)N[C@@H](Cc2c[nH]c3ccccc23)C(=O)N[C@@H](CO)C(=O)N[C@@H](Cc2c[nH]c3ccccc23)C(=O)N1C (some centres unmarked)")
8.52
>>> quantitative_readout("CCCC[C@H]1C(=O)N(C)[C@@H](CCCC)C(=O)N[C@@H](CCCNC(=N)N)C(=O)N[C@H](C(N)=O)CSCC(=O)N[C@@H](Cc2ccccc2)C(=O)N(C)[C@@H](C)C(=O)N[C@@H](CC(N)=O)C(=O)N2CCCC2C(=O)N[C@@H](Cc2cnc[nH]2)C(=O)N[C@@H](CC(C)C)C(=O)N(C)CC(=O)N[C@@H](Cc2c[nH]c3ccccc23)C(=O)N[C@@H](CO)C(=O)N[C@@H](Cc2c[nH]c3ccccc23)C(=O)N1C (some centres unmarked) [Compound No. 24] ({CH2CO}-F[NMeA]N[ξP]HL[Sar]WSW[NMeNle][NMeNle]RC-NH2; thioether N-14)")
8.05
>>> quantitative_readout("CCCC[C@H]1C(=O)N[C@@H](CCCNC(=N)N)C(=O)N[C@H](C(=O)NCC(N)=O)CSCC(=O)N[C@@H](Cc2ccccc2)C(=O)N(C)[C@@H](C)C(=O)N[C@@H](CC(N)=O)C(=O)N2CCCC2C(=O)N[C@@H](Cc2cnc[nH]2)C(=O)N[C@@H](CC(C)C)C(=O)N(C)CC(=O)N[C@@H](Cc2c[nH]c3ccccc23)C(=O)N[C@@H](CO)C(=O)N[C@@H](Cc2c[nH]c3ccccc23)C(=O)N(C)[C@@H](C)C(=O)N1C (some centres unmarked) [Compound No. 19] ({CH2CO}-F[NMeA]N[ξP]HL[Sar]WSW[NMeA][NMeNle]RCG-NH2; thioether N-14)")
7.48
>>> quantitative_readout("CCCC[C@H]1C(=O)N(C)[C@@H](CCCC)C(=O)N[C@@H](CCCNC(=N)N)C(=O)N[C@H](C(=O)NCC(N)=O)CSCC(=O)N[C@@H](Cc2ccccc2)C(=O)N(C)[C@@H](C)C(=O)N[C@@H](CC(N)=O)C(=O)N2CCC[C@@]2(C)C(=O)N[C@@H](Cc2cnc[nH]2)C(=O)N[C@@H](CC(C)C)C(=O)N(C)CC(=O)N[C@@H](Cc2c[nH]c3ccccc23)C(=O)N[C@@H](CO)C(=O)N[C@@H](Cc2c[nH]c3ccccc23)C(=O)N1C [Compound No. 49] ({CH2CO}-F[NMeA]N[αMeP]HL[Sar]WSW[NMeNle][NMeNle]RCG-NH2; thioether N-14)")
7.47
>>> quantitative_readout("CCCC[C@H]1C(=O)N(C)[C@@H](CCCC)C(=O)N[C@@H](CCCNC(=N)N)C(=O)N[C@H](C(=O)NCC(N)=O)CSCC(=O)N[C@@H](Cc2ccccc2)C(=O)N(C)[C@@H](C)C(=O)N[C@@H](CC(N)=O)C(=O)N2CCC[C@H]2C(=O)N[C@@H](Cc2c[nH]cn2)C(=O)N[C@@H](CC(C)C)C(=O)N[C@@H](CCN)C(=O)N[C@@H](Cc2c[nH]c3ccccc23)C(=O)N[C@@H](CO)C(=O)N[C@@H](Cc2c[nH]c3ccccc23)C(=O)N1C")
7.62
>>> quantitative_readout("CCCC[C@H]1C(=O)N(C)[C@@H](CCCC)C(=O)N[C@@H](C)C(=O)N[C@H](C(=O)NCC(N)=O)CSCC(=O)N[C@@H](Cc2ccccc2)C(=O)N(C)[C@@H](C)C(=O)N[C@@H](CC(N)=O)C(=O)N2CCC[C@H]2C(=O)N[C@@H](Cc2cnc[nH]2)C(=O)N[C@@H](CC(C)C)C(=O)N(C)CC(=O)N[C@@H](Cc2c[nH]c3ccccc23)C(=O)N[C@H](C)C(=O)N[C@@H](Cc2c[nH]c3ccccc23)C(=O)N1C [Compound No. 60] ({CH2CO}-F[NMeA]NPHL[Sar]W[dA]W[NMeNle][NMeNle]ACG-NH2; thioether N-14)")
7.37
>>> quantitative_readout("CCCC[C@H]1C(=O)N(C)[C@@H](CCCC)C(=O)N[C@@H](CCCNC(=N)N)C(=O)N[C@H](C(=O)NCC(N)=O)CSCC(=O)N[C@@H](Cc2ccccc2)C(=O)N(C)[C@@H](C)C(=O)N[C@@H](CC(N)=O)C(=O)N2CCC[C@H]2C(=O)N[C@@H](Cc2cnc[nH]2)C(=O)N[C@@H](CC(C)C)C(=O)N(C)CC(=O)N[C@@H](Cc2c[nH]c3ccccc23)C(=O)N[C@H](CC(N)=O)C(=O)N[C@@H](Cc2c[nH]c3ccccc23)C(=O)N1C [Compound No. 58] ({CH2CO}-F[NMeA]NPHL[Sar]W[dN]W[NMeNle][NMeNle]RCG-NH2; thioether N-14)")
5.05
>>> quantitative_readout("CCCC[C@H]1C(=O)N(C)[C@@H](CCCC)C(=O)N[C@@H](CCCNC(=N)N)C(=O)N[C@H](C(=O)NCC(N)=O)CSCC(=O)N[C@@H](Cc2ccccc2)C(=O)N(C)[C@@H](C)C(=O)N[C@@H](CC(N)=O)C(=O)N2CCC[C@H]2C(=O)N[C@@H](Cc2cnc[nH]2)C(=O)N[C@@H](CC(C)C)C(=O)N(C)CC(=O)N[C@@H](Cc2c[nH]c3ccccc23)C(=O)N[C@@H](CO)C(=O)N[C@@H](CCSC)C(=O)N1C [Compound No. 61] ({CH2CO}-F[NMeA]NPHL[Sar]WSM[NMeNle][NMeNle]RCG-NH2; thioether N-14)")
7.51
